Tested target: Human Polymorphonuclear Leukocyte Elastase (Homo sapiens, UniProt P08246)
Construct: Crude extract of human polymorphonuclear leukocytes (PMN) containing elastase activity; from tissue; host or cells: human polymorphonuclear leukocytes (crude extract)
Sequence (P08246 30-267): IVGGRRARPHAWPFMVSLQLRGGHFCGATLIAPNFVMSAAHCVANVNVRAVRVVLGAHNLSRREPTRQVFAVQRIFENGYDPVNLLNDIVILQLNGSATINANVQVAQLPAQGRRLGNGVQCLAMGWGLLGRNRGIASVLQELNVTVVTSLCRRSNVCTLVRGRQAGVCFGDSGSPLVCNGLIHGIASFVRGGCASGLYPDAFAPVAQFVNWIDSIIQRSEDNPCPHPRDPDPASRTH
Test description: Enzyme assay for inhibition of human polymorphonuclear leukocyte elastase via hydrolysis of Boc-AAPAN or Boc-AAPVN
Type: biochemical
Experimental setup: pH 7.5, second order rate constant for inactivation of the enzyme, expressed to the nearest thousand, read-out: Kobs/[I]
Entries and their kinact/KI values follow.
Quantity kind: kinact/KI (M⁻¹ s⁻¹)

{"columns": ["Smiles notation", "Quantity kind", "Val"],
 "data": [
  ["CCC[C@@H](NC(=O)N1C(=O)C(CC)(CC)[C@@H]1Oc1ccc(C(=O)N(C)CCOC(=O)N(C)C)cc1)c1ccc(C)cc1", "kinact/KI", "1.52e+06"],
  ["CCC[C@@H](NC(=O)N1C(=O)C(CC)(CC)[C@@H]1Oc1ccc(C(=O)N2CCN(c3ccccc3)CC2)cc1)c1ccc(C)cc1", "kinact/KI", "5.28e+06"],
  ["CCC[C@@H](NC(=O)N1C(=O)C(CC)(CC)[C@@H]1Oc1ccc(C(=O)N(C)CCN(C)C)cc1)c1ccc(C#N)cc1", "kinact/KI", 846000]
]}
